Biological target: Gal(b1-3)GlcNAc(b1-3)Gal(b1-4)Glc
Test: glycan array binding signal (z-score within array); higher = stronger binding
Details: glycan notation: IUPAC condensed, linker removed
Many of the other results were omitted from the sample, so the strongest signals are more common in it than they were.
// reported glycan array binding signal (z-score) per item
measured parameter: glycan array binding signal (z-score)

INSERT INTO results (binder, data_value) VALUES
  ('F17-L (Escherichia coli) (protein) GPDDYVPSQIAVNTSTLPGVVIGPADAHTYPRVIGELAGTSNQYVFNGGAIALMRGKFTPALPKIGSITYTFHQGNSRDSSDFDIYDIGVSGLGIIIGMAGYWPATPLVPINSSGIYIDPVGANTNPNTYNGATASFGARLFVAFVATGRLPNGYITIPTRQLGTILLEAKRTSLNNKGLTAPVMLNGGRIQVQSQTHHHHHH', 1.3),
  ('Mg3lysM (Mycosphaerella graminicola) (protein) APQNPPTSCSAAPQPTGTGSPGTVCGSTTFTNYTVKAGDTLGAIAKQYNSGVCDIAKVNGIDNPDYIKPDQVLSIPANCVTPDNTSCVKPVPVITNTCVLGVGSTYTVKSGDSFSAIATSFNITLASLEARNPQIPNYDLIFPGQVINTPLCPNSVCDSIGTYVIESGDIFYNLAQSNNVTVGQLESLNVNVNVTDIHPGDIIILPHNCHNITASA', -0.065),
  ('Ecp6 (Cladosporium fulvum), B3VBK9 (protein) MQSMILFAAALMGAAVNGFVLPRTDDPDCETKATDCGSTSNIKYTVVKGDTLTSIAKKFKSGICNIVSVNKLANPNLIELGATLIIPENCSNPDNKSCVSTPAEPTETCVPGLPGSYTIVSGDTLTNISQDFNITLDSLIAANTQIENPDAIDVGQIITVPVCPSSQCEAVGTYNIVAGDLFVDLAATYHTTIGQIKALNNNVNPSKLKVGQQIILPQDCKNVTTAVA', -0.076),
  ('Epa11 (Candida glabrata) (protein) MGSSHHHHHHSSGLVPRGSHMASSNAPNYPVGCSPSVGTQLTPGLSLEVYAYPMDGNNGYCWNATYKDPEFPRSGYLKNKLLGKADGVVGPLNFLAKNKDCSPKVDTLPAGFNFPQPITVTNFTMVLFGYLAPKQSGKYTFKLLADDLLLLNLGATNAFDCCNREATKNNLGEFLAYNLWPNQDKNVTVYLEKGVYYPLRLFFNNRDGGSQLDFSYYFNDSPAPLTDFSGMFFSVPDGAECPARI', -0.214),
  ('FimD (Bordetella pertussis) (protein) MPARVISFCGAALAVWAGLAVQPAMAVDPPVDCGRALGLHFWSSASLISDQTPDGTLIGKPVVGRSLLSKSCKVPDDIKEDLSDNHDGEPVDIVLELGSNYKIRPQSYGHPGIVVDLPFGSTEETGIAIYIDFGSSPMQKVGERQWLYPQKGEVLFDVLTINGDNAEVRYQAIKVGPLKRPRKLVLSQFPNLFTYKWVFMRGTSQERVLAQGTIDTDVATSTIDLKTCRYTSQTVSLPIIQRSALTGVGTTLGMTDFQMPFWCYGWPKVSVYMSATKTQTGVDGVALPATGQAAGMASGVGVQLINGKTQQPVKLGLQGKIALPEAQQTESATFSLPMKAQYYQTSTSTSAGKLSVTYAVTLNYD', -0.264),
  ('F17aG (Escherichia coli), Q99003 (protein) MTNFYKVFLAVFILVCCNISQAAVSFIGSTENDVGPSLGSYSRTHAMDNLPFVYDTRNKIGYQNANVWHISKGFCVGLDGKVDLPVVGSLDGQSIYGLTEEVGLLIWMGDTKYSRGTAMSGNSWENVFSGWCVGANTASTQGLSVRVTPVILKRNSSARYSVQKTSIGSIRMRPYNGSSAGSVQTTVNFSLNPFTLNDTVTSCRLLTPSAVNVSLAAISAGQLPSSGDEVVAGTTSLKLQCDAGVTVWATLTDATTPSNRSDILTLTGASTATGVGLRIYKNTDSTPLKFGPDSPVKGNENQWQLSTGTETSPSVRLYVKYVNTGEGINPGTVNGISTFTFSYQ', -0.252),
  ('Galatrox (Botrops atrox), P0DM53 (protein) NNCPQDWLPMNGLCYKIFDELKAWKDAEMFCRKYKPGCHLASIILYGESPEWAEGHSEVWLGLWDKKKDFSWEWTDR', 0.413),
  ('Pwp5 ND (Candida glabrata) (protein) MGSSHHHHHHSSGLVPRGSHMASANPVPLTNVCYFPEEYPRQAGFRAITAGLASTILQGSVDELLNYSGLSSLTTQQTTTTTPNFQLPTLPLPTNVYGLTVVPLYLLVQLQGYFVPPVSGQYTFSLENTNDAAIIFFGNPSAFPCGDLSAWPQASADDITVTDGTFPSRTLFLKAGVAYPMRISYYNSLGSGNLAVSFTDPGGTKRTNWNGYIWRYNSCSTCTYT', -0.276),
  ('PA-IL (Pseudomonas aeruginosa), Q05097 (protein) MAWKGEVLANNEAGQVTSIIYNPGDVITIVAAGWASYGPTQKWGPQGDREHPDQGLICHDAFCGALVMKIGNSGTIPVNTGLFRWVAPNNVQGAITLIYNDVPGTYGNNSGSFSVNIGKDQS', -0.228),
  ('Epa20 (Candida glabrata) (protein) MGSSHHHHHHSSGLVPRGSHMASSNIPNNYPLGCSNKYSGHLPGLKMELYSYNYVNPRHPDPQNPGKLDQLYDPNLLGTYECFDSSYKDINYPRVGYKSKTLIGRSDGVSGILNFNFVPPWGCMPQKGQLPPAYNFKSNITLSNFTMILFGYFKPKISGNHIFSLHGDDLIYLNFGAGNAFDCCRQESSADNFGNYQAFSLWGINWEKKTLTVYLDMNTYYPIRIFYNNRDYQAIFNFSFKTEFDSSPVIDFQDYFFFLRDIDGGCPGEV', -0.669);
